Target: NNMT (hNNMT) (Homo sapiens)
Construct: wild type, N-terminal His6 tag kept (no cleavage described), E. coli, construct 31248 Da
Sequence (P40261 1-264): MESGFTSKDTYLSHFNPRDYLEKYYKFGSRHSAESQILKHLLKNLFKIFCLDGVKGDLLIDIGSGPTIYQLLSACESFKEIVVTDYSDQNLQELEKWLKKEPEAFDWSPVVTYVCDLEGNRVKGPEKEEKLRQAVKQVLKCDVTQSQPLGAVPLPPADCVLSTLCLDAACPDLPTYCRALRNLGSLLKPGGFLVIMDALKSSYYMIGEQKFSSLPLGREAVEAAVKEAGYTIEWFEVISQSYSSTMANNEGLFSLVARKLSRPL
Parameters: Intact protein LC/MS covalent labelling, fragments in pools of five, 200 uM each, 4 °C
Conditions: 24 h, 4 °C, pool of five; 200 µM; covalent
I'd appreciate it if you could supply NNMT values for the items below.
Numbers only.

| compound | measuredTarget | NNMT |
| --- | --- | --- |
| O=C(CCl)N1CCC(C(=O)N2CCCCCC2)CC1 | NNMT (hNNMT) (Homo sapiens) | 0 |

Provide reported NNMT for each item, in the same order as listed.
1. C=CC(=O)N1CCCC(c2nncn2C2CC2)C1 (centres unmarked)
2. C=CC(=O)NNC(=O)c1ccccc1

**Result**
[0, 0]

----------
I'd appreciate it if you could supply viability at 48 h, 10 µM values for the items below.
test: in vitro; design: species or system HB2, HEK293; details: human, ccd841 cells
Give bare numbers, in %.

Provide reported viability at 48 h, 10 µM for each item, in the same order as listed.
1. C=CC(=O)N1CCCC(c2nnc3ccc(C(F)(F)F)cn23)C1 (stereo not drawn)
2. O=C(CCl)N1Cc2ccccc2C(c2ccccc2)C1 (stereo not drawn)

**Result**
1. 111
2. 12.4

Provide reported viability at 48 h, 10 µM for each item, in the same order as listed.
1. C=CC(=O)Nc1ccc(Br)cc1
2. C=CC(=O)N1CCC2(CC1)NC(=O)C1(CCCCC1)N2
3. CC(C)(C)c1cc(NC(=O)CCl)on1
4. O=C(CCl)Nc1cccc2ccccc12
5. C=CC(=O)N1CCN(C(=O)Nc2ccc(C)c(Cl)c2)CC1
6. C=CC(=O)NC1CCc2nc(-c3cc(F)ccc3F)cn2C1 (stereo not drawn)
7. Cc1cc(NC(=O)CCl)ccc1Br

**Result**
1. 88.9
2. 106
3. 59.9
4. 55.8
5. 122
6. 106
7. 15.6

Provide reported viability at 48 h, 10 µM for each item, in the same order as listed.
1. Cc1ccc(NC(=O)CCl)cc1I
2. O=C(CCl)NC(=O)CN1CCCC1=O

**Result**
[17.9, 111]

Provide reported viability at 48 h, 10 µM for each item, in the same order as listed.
1. O=C(CCl)NC1CCCC1
2. Cc1ccccc1NC(=O)CCl
3. Cl.O=C(CCl)N1CCN(Cc2ccco2)CC1
4. O=C(CCl)Nc1ccc(F)cc1
5. O=C(CCl)Nc1cc(Cl)ccc1F
6. O=C(CCl)Nc1cccc(N2CCCC2=O)c1

**Result**
1. 69.1
2. 69.6
3. 85
4. 71.8
5. 49.4
6. 52.4
